Catalogue of molecules with associated absorbance at 405 nm
System: gum arabic
assay.text: VHH binding to gum arabic in ELISA
Design: species or system acacia tree
test.settings: [VHH] 0.04688 μg/ml (3.125 nM); gum arabic 100 μg/ml
Would you mind answering with just the numeric figure?

Below, each entry is followed by its recorded absorbance at 405 nm result.
VHH 3E6 (VHH, also called Monovalent VHH 3E6) VHH: QVQLQESGGGLVQPGGTLSLSCAASGFNVRWYGMGWFRQAPGKEREGVACISALQETTAYADSVKGRFTLSRDNPKNTLSLQMNNLQPEDTGVYYCATTDCDDSSRMTYTSYLGQGTQVTVSS :: 0.905
VHH5F5: plant-binding VHH, listed among SEQ ID NO:1-42 (protein, listed as Lama glama, 5F5) VHH: QVQLQESGGGLVQPGGSLRLSCAASGFPLGLYGIGWFRQAPGKEREAVSCDSVDDGSTNYLDSVKGRFTISRDNAKNMVYLQMNSLKPEDTAVYYCATTDCDAKAWGTWTNYRGQGTQVTVSS :: 0.100

Now for a further molecule.
[Q] I'd like to know its absorbance at 405 nm. The molecule in question is VHH 5C4 (VHH, Hexahistidine-tagged) VHH: QVQLQESGGGLVQPGGSLRLSCAASGFSLRYFGIGWFRQVAGKEREPVSCSNVRDGNTYYADSVKGRFTISRDNVRNTLYLQMNSLKPEDTAVYSCATTDCEATTWGTYRGYFGQGTQVTVSS
[A] 0.386

Sourced from patent US20130217572A1
